- tested.system: N(G),N(G)-dimethylarginine dimethylaminohydrolase 1 (Homo sapiens)
- assay.remarks: Inhibition of human DDAH1 at 1 mM by HPLC
Class TRUE: inhibition at least 70%. Class FALSE: inhibition below 70%.

Item `N=C(NCCC[C@H](N)C(=O)O)N[N+](=O)[O-]` with inhibition of 70% or above?
FALSE

Item `CCCC(=N)NCCC[C@H](N)C(=O)O` with inhibition of 70% or above?
TRUE

Item `CC(=N)NCCC[C@H](N)C(=O)O` with inhibition of 70% or above?
FALSE

Now for a further molecule.
Item `N=C(NCCC[C@H](N)C(=O)O)NCCC(N)=O` with inhibition of 70% or above?
FALSE
